// provenance: PubChem BioAssay (NCI)

System: HS 578T breast
run description: NCI-60 one-dose screen, 48 h (100 = growth as untreated, 0 = no growth, -100 = all killed)
recorded conditions: 10 µM unless noted
The panel holds about 83,000 compounds, 20% with a hit somewhere; the sample as a whole holds those more often.
We use 80% as the dividing line for growth: on or above the line is 1, below is -1.

{"molecule": "CCN1C(=O)N(CC)C2NC(SC)=NC21 (configuration not stated)", "classification": 1}
{"molecule": "C=C(C)[C@@H]1CC[C@]2(C(=O)N3CCN(C)CC3)CC[C@]3(C)[C@H](CC[C@@H]4[C@@]5(C)CCC(=O)C(C)(C)[C@@H]5CC[C@]43C)[C@@H]12", "classification": 1}
{"molecule": "COc1cc(Nc2cc(O)c3c(=O)cc(-c4ccccc4)oc3c2)cc(OC)c1", "classification": -1}
{"molecule": "CCN(CCNc1cc(OC)cc2cccnc12)CCc1ccccc1", "classification": 1}
{"molecule": "COC(=O)C(c1ccccc1)C(CC(=O)c1ccccc1)c1ccccc1 (configuration not stated)", "classification": 1}
{"molecule": "Cc1c2c(cc[n+]1Cc1ccccc1)c1ccc(OCc3ccccc3)cc1n2Cc1ccccc1", "classification": -1}
{"molecule": "CCCCCCCCN1C(=O)/C(=c2\\sc3n(c2=O)C2C(NN=3)N(CC)C(=O)N2CC)c2ccccc21 (configuration not stated)", "classification": -1}
{"molecule": "CCCCCOc1ccc(/C=N/Nc2cc(C)nc3ccc(Br)cc23)cc1", "classification": 1}
{"molecule": "Clc1nc(Cl)c2ncn(CC3(Cn4cnc5c(Cl)nc(Cl)nc54)COC3)c2n1", "classification": -1}
{"molecule": "CCCCCCCCCCCCCCCC(=O)OC[C@@]1(O)C[C@@]23CC[C@@H]4C(C)(C)[C@H](O)CC[C@@]4(C)[C@@H]2CC[C@H]1C3", "classification": 1}
{"molecule": "CS(=O)(=O)c1ccc(-c2cc3c(oc2=O)-c2ccccc2OC3O)cc1 (configuration not stated)", "classification": 1}
{"molecule": "c1ccc(N2N=C(c3cccc(Nc4ccncc4)c3)CC2c2ccc3c(c2)OCO3)cc1 (configuration not stated)", "classification": -1}
{"molecule": "CC(N)C(=O)NNc1n[nH]c(=S)n1N (configuration not stated)", "classification": 1}
{"molecule": "O=S(=O)(NCCNc1nccc(-c2c(-c3cccc(F)c3)nc3occn23)n1)c1cccc2ccccc12", "classification": -1}
{"molecule": "CCN1C(=O)N(CC)C2C1NN=c1s/c(=C3\\C(=O)Nc4ccccc43)c(=O)n12 (configuration not stated)", "classification": -1}
{"molecule": "C=C(C)[C@H]1CC/C(C)=C/CC[C@]2(C)O[C@H]2CC/C(COC(=O)[C@@H](OC(C)=O)[C@H](NC(=O)c2ccccc2)c2ccccc2)=C\\[C@@H]1O", "classification": 1}
{"molecule": "O=C1Nc2cc(-c3ccncc3)ccc2/C1=C/c1ccc[nH]1", "classification": 1}
{"molecule": "COc1ccc(CNC(=O)COc2ccc(/C=N/Nc3nc4ccccc4s3)cc2)cc1", "classification": -1}
{"molecule": "O=C(Nc1nc2ccc(C(=O)N3CCN(c4ccc(Cl)c(Cl)c4)CC3)cc2s1)c1ccc(NCCc2ccccc2)c([N+](=O)[O-])c1", "classification": 1}
{"molecule": "CC[C@H](CC[C@@H](C)[C@H]1CC[C@H]2[C@@H]3CC=C4C[C@@H](OCCc5nn[nH]n5)CC[C@]4(C)[C@H]3CC[C@]12C)C(C)C", "classification": 1}
{"molecule": "COc1cc(OC)cc(C2C3=C(COC3=O)Nc3cc(OC)ccc32)c1 (configuration not stated)", "classification": -1}
{"molecule": "Cc1c(C2=CCCCC2)c2ccccn2c1C(=O)c1cccc(S(=O)(=O)N2CCOCC2)c1", "classification": -1}
{"molecule": "COc1ccc(-c2nc(N/N=C/c3cccc(O)c3)nc(N3CCOCC3)c2C#N)cc1", "classification": -1}
{"molecule": "COc1ccc(C(O)c2cc3c(N)c(C(=O)Nc4ccccc4)sc3nc2C)cc1 (configuration not stated)", "classification": -1}
{"molecule": "COc1ccc(-c2cnc(N)nc2-c2ccc(OC)cc2O)cc1", "classification": 1}
{"molecule": "C[C@]12CCc3nc(Nc4cccc(O)c4)sc3C1=CC[C@@H]1[C@@H]2CC[C@]2(C)/C(=N\\NC(N)=S)CC[C@@H]12", "classification": -1}
{"molecule": "c1ccc(CCSc2ncnc3nc[nH]c23)cc1", "classification": 1}
{"molecule": "COc1ccc(C(=O)c2cc3c(N)c(C(=O)Nc4cccc(Cl)c4C)sc3nc2C)cc1", "classification": -1}
{"molecule": "O=[N+]([O-])c1cccc(-c2nc(-c3ccc(Cl)cc3Cl)cn2-c2ccccc2)c1", "classification": -1}
{"molecule": "O=C1OC(=O)C2C1CC=CC2c1ccccc1 (configuration not stated)", "classification": -1}
{"molecule": "COc1ccc2c(c1)c(CC(=O)NCCOCCOCC(=O)Nc1ccc(OC)c(C(N)=O)c1O)c(C)n2C(=O)c1ccc(Cl)cc1", "classification": 1}
{"molecule": "c1ccc2c(-c3c4ccsc4cc4[nH]c5ccccc5c34)c[nH]c2c1", "classification": -1}
{"molecule": "CC1(c2ccccc2)NC(=O)N(CC(=O)Nc2cccc(I)c2)C1=O (configuration not stated)", "classification": -1}
{"molecule": "O=S(=O)(NCCNc1nccc(-c2c(-c3ccc(F)c(O)c3)nc3occn23)n1)c1ccccc1", "classification": -1}
{"molecule": "C=C1C(=O)O[C@H]2[C@H]1CC/C(COC(=O)/C=C/c1c[nH]c3ccccc13)=C\\CC[C@@]1(C)O[C@@H]21", "classification": -1}
{"molecule": "CN1CCN(CCCOc2ccc3ncnc(Nc4ccc(Oc5cccc(C(F)(F)F)c5)c(Cl)c4)c3c2)CC1", "classification": -1}

====

System: SF-295 CNS
run description: NCI-60 one-dose screen, 48 h
recorded conditions: 10 µM unless noted
The panel holds about 83,000 compounds, 20% with a hit somewhere; the sample as a whole holds those more often. Active and inactive are the calls of the source. How the source made its calls: active means growth percent below 10; inactive means the rest.
Outcome codes: active, inactive

{"compound": "Cc1ccc(S(=O)(=O)Nc2ccc(Cl)cc2)cc1", "classification": "inactive"}
{"compound": "CCCc1cc2c(cc1Br)OCO2", "classification": "inactive"}
{"compound": "CN1C(=O)N(C)C2NC(N/N=C/c3ccccc3)=NC21 (configuration not stated)", "classification": "inactive"}
{"compound": "Nc1nnc(C(=O)c2cnc3n(c2=O)CCCCC3)s1", "classification": "inactive"}
{"compound": "Cc1cc2nc(-c3ccccc3)c(-c3ccccc3)nc2cc1C", "classification": "inactive"}
{"compound": "COc1ccc(C(=O)/C=C/c2cn(Cc3ccc(Cl)cc3)c3ccccc23)cc1", "classification": "inactive"}
{"compound": "Clc1nc(Cl)c2ncn(CCOCCn3cnc4c(Cl)nc(Cl)nc43)c2n1", "classification": "active"}
{"compound": "O=C(Nc1cccc(C2=NCCN2)c1)c1ccc(OCCCOc2ccc(C(=O)Nc3cccc(C4=NCCN4)c3)cc2)cc1", "classification": "inactive"}
{"compound": "CC(C)(C)OC(=O)N1CCN(c2ccc(N)cc2)C(=O)C1", "classification": "inactive"}
{"compound": "Cc1c2c(cc[n+]1Cc1ccccc1)c1ccc(OCC3CCCCC3)cc1n2CC1CCCCC1", "classification": "active"}
{"compound": "CCC1(CC)NC(=O)c2c(c3ccc(Cl)c(Cl)c3n2C)C1C#N (configuration not stated)", "classification": "inactive"}
{"compound": "COc1cccc(CNCCN2C(=O)c3ccc4c5c(ccc(c35)C2=O)C(=O)N(CCNCc2cccc(OC)c2)C4=O)c1", "classification": "inactive"}
{"compound": "CCN(CCNc1cc(OC)cc2cccnc12)CCc1ccccc1", "classification": "inactive"}
{"compound": "Cc1c([N+](=O)[O-])cc(C(C)(C)C)cc1[N+](=O)[O-]", "classification": "inactive"}
{"compound": "CNC(=O)Nc1ccc(-c2nc(N3CCOCC3)nc3c2cnn3C2CCOCC2)cc1", "classification": "active"}
{"compound": "COc1cc2nc(-c3ccc(C(F)(F)F)cc3)cc(OCCN3CCCC3)c2cc1OC", "classification": "inactive"}
{"compound": "COc1ccc(-c2nc(N/N=C/c3c[nH]c4ccccc34)nc(N3CCOCC3)c2C#N)cc1", "classification": "inactive"}
{"compound": "COc1ccc(-c2nc(SCC(C)C)nc(N/N=C(/C)c3ccc(OC)c(OC)c3)c2C#N)cc1", "classification": "inactive"}
{"compound": "OC1(c2ccc(Cl)c(C(F)(F)F)c2)CCN(CCCC(c2ccc(F)cc2)c2ccc(F)cc2)CC1", "classification": "active"}
{"compound": "Cc1nc2sc(C(=O)Nc3cccc(Br)c3)c(N)c2cc1C(=O)c1ccc(C(F)(F)F)cc1", "classification": "inactive"}
{"compound": "C=C(C)[C@@H]1CC[C@]2(CO)CC[C@]3(C)[C@H](CC[C@@H]4[C@@]5(C)CCCNC(C)(C)[C@@H]5CC[C@]43C)[C@@H]12", "classification": "inactive"}
{"compound": "CS(=O)(=O)OCCN(CCOS(C)(=O)=O)c1ccc(/C=N/Nc2ccc([N+](=O)[O-])cc2[N+](=O)[O-])cc1", "classification": "inactive"}
{"compound": "COc1nc(N)nc(-n2c(-c3ccc(C)cc3)nc3ccccc32)c1NCc1ccc(C)cc1", "classification": "inactive"}
{"compound": "Nc1c(C(=O)Nc2cccc3ccncc23)sc2nc3c(cc12)C(=O)CCC3", "classification": "inactive"}
{"compound": "COc1ccc(/C=C/C(=O)c2ccc(OC)c(OC)c2)cc1O", "classification": "inactive"}
{"compound": "COc1cc2c(cc1[N+](=O)[O-])-c1ccc([N+](=O)[O-])cc1/C2=N/NC(N)=S", "classification": "inactive"}
{"compound": "Cc1ccc(O)c(C(=O)O)c1", "classification": "inactive"}
{"compound": "Nc1nnc2cc(Cl)ccc2n1", "classification": "inactive"}
{"compound": "CN1CCN(C(=O)OCc2nc3c(N4CCOCC4)nc(-c4ccccc4)nc3n2C)CC1", "classification": "inactive"}
{"compound": "CCCCCCCCN1C(=O)/C(=c2\\sc3n(c2=O)C2C(NN=3)N(CC)C(=O)N2CC)c2ccccc21 (configuration not stated)", "classification": "inactive"}
{"compound": "CCCCCCCCCCCCCCCC(=O)OC[C@@]1(O)C[C@@]23CC[C@@H]4C(C)(C)[C@H](O)CC[C@@]4(C)[C@@H]2CC[C@H]1C3", "classification": "inactive"}
{"compound": "C=C(C)[C@H]1CC/C(C)=C/CC[C@]2(C)O[C@H]2CC/C(COC(=O)[C@@H](OC(C)=O)[C@H](NC(=O)c2ccccc2)c2ccccc2)=C\\[C@@H]1O", "classification": "inactive"}
{"compound": "C[C@]12C[C@H]1CC[C@]1(C)[C@@H]2CC[C@@]23C[C@H](CC[C@H]21)[C@@](O)(CO)C3", "classification": "inactive"}
{"compound": "C#CCNC(=O)[C@H](Cc1ccccc1)NC(=O)[C@]12CC[C@@H](C(=C)C)[C@@H]1[C@H]1CC[C@@H]3[C@@]4(C)Cc5c([nH]c6ccccc56)C(C)(C)[C@@H]4CC[C@@]3(C)[C@]1(C)CC2", "classification": "inactive"}
{"compound": "CC1(C)CN(c2cnc(C(=O)Nc3cc(F)cc4cccnc34)cn2)CCN1", "classification": "inactive"}
{"compound": "CCCC1C(C(=O)OCC)=C(N)Oc2cc(O)ccc21 (configuration not stated)", "classification": "inactive"}
{"compound": "CCOC(=O)Oc1c(OC)cc(C(=O)O[C@@H]2C[C@@H]3CN4CCc5c([nH]c6cc(OC)ccc56)[C@H]4C[C@@H]3[C@H](C(=O)OC)[C@H]2OC)cc1OC", "classification": "inactive"}
